test system: HaCat; experiment: Cytotoxic Profiling of Annotated Libraries Using Quantitative High-Throughput Screening (AID 1296008); settings: Five cell lines viability, CellTiter-Glo ATP luminescence, 48-72 h; also: nearly all actives have a fitted effect of over 60% in size
Records with an inconclusive call do not appear. Active and inactive are the calls of the source. Calls follow the shape of the dose curve; as a rule, active = well fitted inhibition curve with a large enough effect; inconclusive = small, poorly fitted or top-dose-only effect; inactive = flat fitted curve, though single readings scatter.
Quantity name: outcome

Below: 6 molecules and their reported outcome.
Molecule | Quantity name | Data value
COc1ccccc1CN[C@H]1CCCN[C@H]1c1ccccc1 | outcome | inactive
C=C1C[C@]23C[C@H]1CC[C@H]2[C@]1(C)CC[C@H](O)[C@@](C)(C(=O)O)[C@H]1[C@@H]3C(=O)O | outcome | inactive
COc1c2cc(c(O[C@@H]3O[C@H](CO)[C@@H](O)[C@H](O)[C@H]3O)c1OC)CCCCC(O)CCc1ccc(O)c-2c1 (some centres not stated) | outcome | inactive
COc1cc(/C=C/c2ccccc2)c(C(=O)O)c(O)c1CC=C(C)C | outcome | inactive
CCC(C)C(=O)O[C@H]1[C@@H](O[C@H]2O[C@H](CO)[C@@H](O)[C@H](O)[C@H]2O)O[C@H](CO)[C@@H](O)[C@@H]1O (some centres not stated) | outcome | inactive
COc1cc([C@H]2OC[C@](O)(Cc3ccc(O[C@@H]4O[C@H](CO)[C@@H](O)[C@H](O)[C@H]4O)c(OC)c3)[C@@H]2CO)ccc1O | outcome | inactive

Lab note: molecule C=C1CC[C@@H]2[C@](C)(CO)[C@H](O[C@@H]3O[C@H](CO)[C@@H](O)[C@H](O)[C@H]3O)CC[C@@]2(C)[C@@H]1C/C=C1/C(=O)OC[C@H]1O tested on HaCat; recorded outcome was inactive
